FYI, the data here is from patent US12227500B2.

% Enzyme Activity Remaining (relative to DMSO controls), MLK3/MAP3K11, Data 1 listing for selected molecules.
TGT: MLK3/MAP3K11 (Homo sapiens, UniProt Q16584)
Construct: purchased Reaction Biology Corp
Sequence (Q16584 whole entry): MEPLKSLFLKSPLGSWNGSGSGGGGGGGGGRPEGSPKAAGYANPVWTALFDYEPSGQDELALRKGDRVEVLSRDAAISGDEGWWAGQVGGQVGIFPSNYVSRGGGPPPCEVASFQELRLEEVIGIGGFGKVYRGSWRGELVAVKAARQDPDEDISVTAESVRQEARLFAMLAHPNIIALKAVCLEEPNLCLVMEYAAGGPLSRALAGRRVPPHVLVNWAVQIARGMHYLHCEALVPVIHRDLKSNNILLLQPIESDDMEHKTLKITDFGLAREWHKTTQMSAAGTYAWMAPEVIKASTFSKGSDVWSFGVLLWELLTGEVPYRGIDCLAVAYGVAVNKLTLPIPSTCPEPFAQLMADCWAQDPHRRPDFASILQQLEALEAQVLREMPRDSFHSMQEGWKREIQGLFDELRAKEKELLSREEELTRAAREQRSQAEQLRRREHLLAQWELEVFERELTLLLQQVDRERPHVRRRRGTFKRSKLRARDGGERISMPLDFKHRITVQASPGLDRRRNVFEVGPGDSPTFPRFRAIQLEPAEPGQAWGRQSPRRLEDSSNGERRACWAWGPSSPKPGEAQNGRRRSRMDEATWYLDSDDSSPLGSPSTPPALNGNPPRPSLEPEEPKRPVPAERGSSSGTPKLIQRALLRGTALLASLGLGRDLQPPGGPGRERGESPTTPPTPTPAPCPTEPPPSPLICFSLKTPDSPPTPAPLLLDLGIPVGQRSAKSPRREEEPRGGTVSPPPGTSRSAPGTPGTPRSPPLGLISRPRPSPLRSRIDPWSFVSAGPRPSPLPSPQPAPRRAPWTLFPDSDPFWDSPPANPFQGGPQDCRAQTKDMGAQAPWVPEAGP
TEST SUMMARY: Radiolabeled ATP kinase assay (Reaction Biology Corp.), MLK3
Assay type: biochemical
CONDITIONS USED: [Cmpd] 0.1 μM; 10 μM ATP
The reply should be a number in %, with the unit left off.

In the examples that follow, each entry is paired with its recorded % Enzyme Activity Remaining (relative to DMSO controls), MLK3/MAP3K11, Data 1.
MOLECULE | TGT | TEST VALUE
c1cc2cc(-c3c[nH]c4ncc(-c5ccc(CN6CC7CCC(C6)O7)cc5)cc34)ccc2[nH]1 [Compound 12a] | MLK3/MAP3K11 (Homo sapiens, UniProt Q16584) | 52.18
COc1ccccc1-c1c[nH]c2ncc(-c3ccc(CN4CCN(C)CC4)cc3)cc12 [Compound 7at] | MLK3/MAP3K11 (Homo sapiens, UniProt Q16584) | 24.55
C[C@@H](NC(=O)Nc1cccc(-c2c[nH]c3ncc(-c4ccc(CN5CCN(C)CC5)cc4)cc23)c1)c1ccccc1 [Compound 7ax] | MLK3/MAP3K11 (Homo sapiens, UniProt Q16584) | 90.99

Identify the reported % Enzyme Activity Remaining (relative to DMSO controls), MLK3/MAP3K11, Data 1 for the following entry. CN1CCN(Cc2ccc(-c3cnc4[nH]cc(-c5ccc(S(C)(=O)=O)nc5)c4c3)cc2)CC1 [Compound 7u]
92.02

Identify the reported % Enzyme Activity Remaining (relative to DMSO controls), MLK3/MAP3K11, Data 1 for the following entry. CN1CCN(Cc2ccc(-c3cnc4[nH]cc(-c5ccccc5)c4c3)cc2)CC1 [Compound 7ac]
42.00

Identify the reported % Enzyme Activity Remaining (relative to DMSO controls), MLK3/MAP3K11, Data 1 for the following entry. CN1CCN(Cc2ccc(-c3cnc4[nH]cc(-c5ccc(CN6CCOCC6)s5)c4c3)cc2)CC1 [Compound 7t]
83.49

Identify the reported % Enzyme Activity Remaining (relative to DMSO controls), MLK3/MAP3K11, Data 1 for the following entry. COc1ccc(COc2ccc(-c3c[nH]c4ncc(-c5ccc(CN6CCN(C)CC6)cc5)cc34)cc2)cc1 [Compound 7ao]
35.75

Identify the reported % Enzyme Activity Remaining (relative to DMSO controls), MLK3/MAP3K11, Data 1 for the following entry. COc1ccc(-c2c[nH]c3ncc(-c4ccc(CN5CCN(C)CC5)cc4)cc23)cc1C [Compound 7aq]
51.92

Identify the reported % Enzyme Activity Remaining (relative to DMSO controls), MLK3/MAP3K11, Data 1 for the following entry. CN1CCN(Cc2ccc(-c3cnc4[nH]cc(-c5cccc(C(F)(F)F)c5)c4c3)cc2)CC1 [Compound 7ab]
68.47

Identify the reported % Enzyme Activity Remaining (relative to DMSO controls), MLK3/MAP3K11, Data 1 for the following entry. CN1CCN(Cc2ccc(-c3cnc4[nH]cc(-c5cc6ccccc6s5)c4c3)cc2)CC1 [Compound 7g]
45.87

Identify the reported % Enzyme Activity Remaining (relative to DMSO controls), MLK3/MAP3K11, Data 1 for the following entry. Cc1nn(C)c(C)c1-c1c[nH]c2ncc(-c3ccc(CN4CCN(C)CC4)cc3)cc12 [Compound 7ai]
93.11

Identify the reported % Enzyme Activity Remaining (relative to DMSO controls), MLK3/MAP3K11, Data 1 for the following entry. CN1CCN(Cc2ccc(-c3cnc4[nH]cc(-c5cc6ccccc6[nH]5)c4c3)cc2)CC1 [Compound 7a]
63.66

Identify the reported % Enzyme Activity Remaining (relative to DMSO controls), MLK3/MAP3K11, Data 1 for the following entry. COC(=O)Nc1cccc(-c2c[nH]c3ncc(-c4ccc(CN5CCN(C)CC5)cc4)cc23)c1 [Compound 7al]
32.96

Identify the reported % Enzyme Activity Remaining (relative to DMSO controls), MLK3/MAP3K11, Data 1 for the following entry. CC(=O)c1ccc(-c2c[nH]c3ncc(-c4ccc(CN5CCN(C)CC5)cc4)cc23)cc1 [Compound 7x]
67.84

Identify the reported % Enzyme Activity Remaining (relative to DMSO controls), MLK3/MAP3K11, Data 1 for the following entry. CN1CCN(Cc2ccc(-c3cnc4[nH]cc(-c5ccc(N)cc5)c4c3)cc2)CC1 [Compound 7e]
51.43

Identify the reported % Enzyme Activity Remaining (relative to DMSO controls), MLK3/MAP3K11, Data 1 for the following entry. COC(=O)Nc1ccc(-c2c[nH]c3ncc(-c4ccc(CN5CCN(C)CC5)cc4)cc23)cc1 [Compound 7an]
65.74
